- Tested on: Plasmodium falciparum
- assayProcedure: Antiplasmodial activity against multidrug resistant Plasmodium falciparum W2mef incubated for 48 hrs by SYBR staining based fluorometer assay
- Type: functional, organism-based
parameterMeasured: EC50 (µM)
Numbers only here, please. The scale is µM.

Recorded results for 3 compounds are shown here.
COc1cc(NC(=O)Cn2ccc3ccc(-c4nnc(C)o4)cc32)cc(OC)c1OC	0.077
Cn1cc(-c2ccc3ccn(CC(=O)Nc4ccccc4Cl)c3c2)cn1	0.279
CCc1nnc(-c2ccc3ccn(CC(=O)Nc4cc(OC)c(OC)c(OC)c4)c3c2)o1	0.272

# query: EC50 | item O[C@@H](c1cc(C(F)(F)F)nc2c(C(F)(F)F)cccc12)[C@H]1CCCCN1 (racemic) [(S,R)-MEFLOQUINE] | system: Plasmodium falciparum
0.064

----------
- assayProcedure: Metabolic stability in human liver microsome assessed as intrinsic clearance
- Type: ADME
- conditionInfo: microsomes
parameterMeasured: intrinsic clearance (CLint) (µL/min/mg)
Numbers only here, please. The scale is µL/min/mg.

Cn1cc(-c2ccc3c(Cl)cn(CC(=O)Nc4ccccc4Cl)c3c2)cn1	65
COc1cc(NC(=O)Cn2cc(Cl)c3ccc(-c4cnn(C)c4)cc32)cc(OC)c1OC	15
Cn1cc(-c2ccc3ccn(CC(=O)Nc4ccccc4Cl)c3c2)c(C(F)(F)F)n1	488
COc1cc(NC(=O)Cn2ccc3ccc(-c4cnn(C)c4)cc32)cc(OC)c1OC	95
COc1cc(NC(=O)Cn2cc(Cl)c3cc(F)c(-c4cn(C)nc4C)cc32)cc(OC)c1OC	64
Cn1cc(-c2ccc3ccn(CC(=O)Nc4ccccc4Cl)c3n2)cn1	458
COc1cc(NC(=O)Cn2ccc3ccc(-c4cn(C)nc4C)cc32)cc(OC)c1OC	105
COc1cc(NC(=O)Cn2ccc3cc(F)c(-c4cnn(C)c4)cc32)cc(OC)c1OC	69

Quick one: intrinsic clearance (CLint) of COc1cc(NC(=O)Cn2ccc3ccc(-c4nnc(C)o4)cc32)cc(OC)c1OC ?
42

Quick one: intrinsic clearance (CLint) of Cn1cc(-c2ccc3c(C#N)cn(CC(=O)Nc4ccccc4Cl)c3c2)cn1 ?
62

Quick one: intrinsic clearance (CLint) of Cc1nnc(-c2ccc3ccn(CC(=O)Nc4cccnc4Cl)c3c2)o1 ?
57

----------
- Test system: Plasmodium falciparum
- assayProcedure: Antimalarial activity against Plasmodium falciparum NF54 infected assessed as inhibition of male gamete formation incubated for 48 hrs by automated bright field microscopic analysis
- Format: functional, organism-based
- conditionInfo: NF54, 48 h
parameterMeasured: EC50 (µM)
Numbers only here, please. The scale is µM.

Recorded results for 4 compounds are shown here.
COc1cc(NC(=O)Cn2cc(Cl)c3cc(F)c(-c4cnn(C)c4)cc32)cc(OC)c1OC	0.21
COc1cc(NC(=O)Cn2ccc3ccc(-c4nnc(C)o4)cc32)cc(OC)c1OC	1.5
Cc1nnc(-c2ccc3ccn(CC(=O)Nc4ccccc4Cl)c3c2)o1	3.6
CCc1nnc(-c2ccc3ccn(CC(=O)Nc4cc(OC)c(OC)c(OC)c4)c3c2)o1	7.4

Now look at this entry.
Quick one: EC50 of COc1cc(NC(=O)Cn2ccc3cc(F)c(-c4cnn(C)c4)cc32)cc(OC)c1OC ?
0.19

----------
- System: Plasmodium falciparum
- assayProcedure: Antiplasmodial activity against multidrug-resistant Plasmodium falciparum Dd2 harboring plasmodium falciparum ATP4 G358S mutant by SYBR green staining based analysis
- Type: functional, organism-based
parameterMeasured: pEC50
Give only the number. pEC50 is defined as minus log10 of concentration in molar units.

Recorded results for 3 compounds are shown here.
COc1cc(NC(=O)Cn2ccc3cc(F)c(-c4cnn(C)c4)cc32)cc(OC)c1OC	7.38
Cc1nnc(-c2ccc3ccn(CC(=O)Nc4ccccc4Cl)c3c2)o1	5.89
CCc1nnc(-c2ccc3ccn(CC(=O)Nc4cc(OC)c(OC)c(OC)c4)c3c2)o1	5.86

Quick one: pEC50 of Cn1cc(-c2ccc3ccn(CC(=O)Nc4ccccc4Cl)c3c2)cn1 ?
5.78
